// reported phosphorylation enrichment per item
# test_target: MERTK (UniProt Q12866)
# Sequence (Q12866 whole entry, looked up): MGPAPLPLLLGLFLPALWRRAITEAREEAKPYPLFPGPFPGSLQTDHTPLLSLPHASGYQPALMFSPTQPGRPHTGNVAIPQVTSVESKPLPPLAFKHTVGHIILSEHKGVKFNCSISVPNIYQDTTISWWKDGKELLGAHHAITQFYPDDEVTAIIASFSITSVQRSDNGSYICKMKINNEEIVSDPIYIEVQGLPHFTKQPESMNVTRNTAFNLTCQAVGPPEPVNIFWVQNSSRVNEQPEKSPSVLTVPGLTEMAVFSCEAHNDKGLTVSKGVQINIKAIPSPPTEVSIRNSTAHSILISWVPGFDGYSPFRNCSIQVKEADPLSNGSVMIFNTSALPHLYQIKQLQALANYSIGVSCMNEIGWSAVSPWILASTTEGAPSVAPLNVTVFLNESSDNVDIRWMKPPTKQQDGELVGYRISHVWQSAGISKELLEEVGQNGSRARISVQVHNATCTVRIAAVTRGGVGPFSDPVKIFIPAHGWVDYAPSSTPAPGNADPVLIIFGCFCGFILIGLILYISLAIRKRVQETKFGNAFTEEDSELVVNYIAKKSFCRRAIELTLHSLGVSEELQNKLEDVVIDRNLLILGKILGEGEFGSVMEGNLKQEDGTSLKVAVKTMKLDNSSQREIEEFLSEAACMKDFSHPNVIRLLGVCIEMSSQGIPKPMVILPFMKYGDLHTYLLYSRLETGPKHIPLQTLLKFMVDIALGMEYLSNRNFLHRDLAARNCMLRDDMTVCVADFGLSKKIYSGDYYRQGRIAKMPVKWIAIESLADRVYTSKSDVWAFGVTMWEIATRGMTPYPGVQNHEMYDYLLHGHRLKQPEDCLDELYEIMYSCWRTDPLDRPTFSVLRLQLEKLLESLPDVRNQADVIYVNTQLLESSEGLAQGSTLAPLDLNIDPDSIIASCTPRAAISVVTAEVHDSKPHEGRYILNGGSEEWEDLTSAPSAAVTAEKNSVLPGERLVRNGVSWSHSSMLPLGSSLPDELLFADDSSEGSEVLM
# test: phosphorylation enrichment, bacterial display (enrichment ratio); higher = better substrate or ligand; peptides without Tyr show the background
observed_property: phosphorylation enrichment

> print(dat)
                        sequence.string           observed.property  reported.value
 1        ERIELYELDKK [PMM2_Y145_F144L]  phosphorylation enrichment           0.568
 2          FLGKGYSDGGC [MC4R_Y35_S30F]  phosphorylation enrichment           0.552
 3           ETPSEYLEIVR [TMEM130_Y412]  phosphorylation enrichment           0.452
 4       ERDTVYSSSGV [NELL2_Y350_N347D]  phosphorylation enrichment            0.42
 5        CTTIQYNYMCN [TP53_Y234_H233Q]  phosphorylation enrichment           0.482
 6              PSGPTYRGAVP [ASAH1_Y43]  phosphorylation enrichment            0.58
 7      RLRKFHLGKFL [KLB_Y906_Y906H_YF]  phosphorylation enrichment           0.969
 8               KTVQDYLEKFY [MMP8_Y36]  phosphorylation enrichment           0.517
 9         PEQAAYQKVVA [HBB_Y131_V127E]  phosphorylation enrichment           0.483
10             GPKSTYISSAA [GOLGA5_Y62]  phosphorylation enrichment           0.565
11  EQKKFYNATKK [SCN5A_Y1495_M1498T_YF]  phosphorylation enrichment           0.404
12      TNLVPYTRIHF [TUBA1A_Y262_P263T]  phosphorylation enrichment           0.374
13          HRNGMYGLHQD [SGSH_Y89_Q85R]  phosphorylation enrichment           0.396
14        REGAKYVSHSA [ASS1_Y113_G117S]  phosphorylation enrichment           0.593

---

# System: AncSZ
# test: phosphorylation enrichment, bacterial display (enrichment ratio); higher = better substrate or ligand; peptides without Tyr show the background
Quick rule: phosphorylation enrichment of at least 1 means Fulfilled, below that means Not fulfilled.

> print(dat)
                      sequence.string    label.value
 1      STEAIYRRFSK [SH3PXD2B_Y42_YF]  Not fulfilled
 2           GNYSGYDDAWD [POLR1C_Y36]      Fulfilled
 3     FSPGSNERETF [NF1_Y2192_Y2192N]  Not fulfilled
 4                        VRSTEYPCAGL  Not fulfilled
 5   LGPSDYFGETA [PRKAR1A_Y323_I327T]  Not fulfilled
 6    MTYMFYRENLR [NLRP14_Y443_V441M]      Fulfilled
 7      ERIELYELDKK [PMM2_Y145_F144L]      Fulfilled
 8         VQNIVYRTASI [CYP39A1_Y102]  Not fulfilled
 9  ASTDFNKRGDF [PDHA1_Y243_Y243N_YF]  Not fulfilled
10       FDFKKYGKGLR [ZNF445_Y433_YF]  Not fulfilled
11           HQEPVYSVAFS [TBL1X_Y509]      Fulfilled
12            LFLALYTGLVH [PIGB_Y402]      Fulfilled
13      SVVVPYEPSEV [TP53_Y220_P223S]      Fulfilled
14           SRGLAYPARPA [LEMD2_Y122]  Not fulfilled
15     DSNLIYSQIWS [FCRL3_Y662_P660L]      Fulfilled
16       TKDTFYQQPMF [GBA_Y451_K452Q]      Fulfilled
17    EYRFIYMAVQH [PTPN11_Y515_Q510E]      Fulfilled
18   CTTIHYNFMSN [TP53_Y234_C238S_YF]      Fulfilled
19             RLQEGYDHSYY [ESD_Y258]      Fulfilled
20    CEDGNYSPEIS [PTDSS1_Y424_T423N]      Fulfilled
21         IKNSGYISRYL [EIF2AK3_Y585]  Not fulfilled
22          PANTVYSTVEI [SLAMF7_Y304]      Fulfilled
23     RSAGKDDVYLI [MECP2_Y120_Y120D]  Not fulfilled
24      SARFHYLMAEK [LDHB_Y173_R172H]  Not fulfilled
25      GLDGRYLLRDS [SH2D1A_Y29_S28R]  Not fulfilled
26        EFNLMYHGTKE [IRF6_Y97_D98H]  Not fulfilled

---

# test_target: Grb2 SH2 (UniProt P62993)
# Sequence (P62993 whole entry, looked up): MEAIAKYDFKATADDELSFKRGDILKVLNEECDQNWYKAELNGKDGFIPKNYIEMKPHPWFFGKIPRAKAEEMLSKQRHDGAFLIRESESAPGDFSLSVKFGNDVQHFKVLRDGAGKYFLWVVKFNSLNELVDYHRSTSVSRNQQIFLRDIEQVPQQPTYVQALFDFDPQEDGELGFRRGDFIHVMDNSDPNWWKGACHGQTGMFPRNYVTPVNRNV
# test: SH2 binding enrichment of the phosphorylated peptide, bacterial display (enrichment ratio); higher = better substrate or ligand; peptides without Tyr show the background
// reported SH2 binding enrichment per item
observed_property: SH2 binding enrichment

> print(dat)
                     sequence.string       observed.property  reported.value
 1   TLSGTYQFIIA [FOXL2_Y81_I80T_YF]  SH2 binding enrichment           0.968
 2            HQKKPYCHAHN [NRAP_Y53]  SH2 binding enrichment            1.64
 3      WGLRSYFETSK [MAGED2_Y448_YF]  SH2 binding enrichment            1.08
 4      SEPSGYQDNIA [DES_Y363_A360P]  SH2 binding enrichment           0.743
 5  FSGDCYRIQGR [DDR2_Y741_Y740C_YF]  SH2 binding enrichment           0.806
 6        SPYAVYRFFTF [RPGRIP1_Y826]  SH2 binding enrichment           0.728
 7      PPVVNYEQDAR [FER_Y402_E404Q]  SH2 binding enrichment           0.879
 8   PMQMPYDSRWE [PDGFRA_Y582_L580M]  SH2 binding enrichment           0.615
 9    DVQNEYDSNHC [ZFYVE16_Y36_A35E]  SH2 binding enrichment             1.1
10   AAVPAYDKIQV [STXBP2_Y401_R405Q]  SH2 binding enrichment           0.759
11    YSTPPYLLEAA [BRIP1_Y921_S919P]  SH2 binding enrichment           0.862
12   TNLVPYPCIHF [TUBA1A_Y262_R264C]  SH2 binding enrichment           0.894
13    LWQTIYNLEAE [TNNT2_Y251_S249T]  SH2 binding enrichment            1.03
14            SDTGQYQCLVF [AXL_Y115]  SH2 binding enrichment           0.582

---

# test_target: Grb2 SH2 (UniProt P62993)
# test: SH2 binding enrichment of the phosphorylated peptide, bacterial display (enrichment ratio); higher = better substrate or ligand; peptides without Tyr show the background
observed_property: SH2 binding enrichment

> print(dat)
                       sequence.string  reported.value
 1            SRGLAYPARPA [LEMD2_Y122]           0.825
 2    RVDRDYVLKST [HTATIP2_Y111_A116T]            1.01
 3       SYNNKYGMVAQ [APOB_Y276_K273N]           0.713
 4            SCRENYSDSEE [LEMD3_Y258]            1.05
 5        VLAHKYHGGGG [HBB_Y146_A141V]           0.939
 6     SSVKLYRVFCD [FGB_Y266_P265L_YF]           0.665
 7        GFWPRYVKVGS [NOG_Y172_R167G]           0.645
 8            GNYSGYDDAWD [POLR1C_Y36]           0.833
 9           IRRWVYPLTPE [EIF2B5_Y319]           0.811
10       RNVYYYSYLLK [PTEN_Y178_Y174N]             1.5
11       YRVAGYKTQGG [TIA1_Y383_E384K]            0.68
12      SNKLTYGTVVF [ACOX1_Y275_M278V]            0.92
13             ALRHYYKLNII [ETV6_Y402]            1.54
14  IFETDYFQKGG [INSR_Y1189_R1191Q_YF]           0.948
